pest or weed control at 70 g/ha listing for selected compounds.
system: Key Broadleaf Weed and Crop Species; test: Post-Emergent Test II: postemergent herbicidal activity, visual rating after 14 d (Table 7); type: in vivo; details: post-emergence, 336 h, lambsquarters (Chenopodium album), 70 g ai/ha, read-out: Visual Growth Reduction (%) 14 Days After Application CHEAL
metric: pest or weed control at 70 g/ha

- Nc1nc(-c2cc3c(cc2F)OC(F)(F)O3)nc(C(=O)O)c1Cl [Compound 57]: 0 to 29%
- COC(=O)c1nc(-c2ccc3c(c2Cl)OC(F)(F)O3)cc(N)c1Cl [Compound 33]: 75 to 84%
- COC(=O)c1nc(-c2cc3c(cc2F)OC(F)(F)O3)nc(N)c1Cl [Compound 56]: 0 to 29%
- COC(=O)c1nc(-c2cccc3c2OCO3)c(F)c(N)c1Cl [Compound 71]: 95 to 100%
- COC(=O)c1nc(-c2ccc(Cl)c3c2OC(F)(F)O3)c(F)c(N)c1Cl [Compound 75]: 95 to 100%
- COC(=O)c1nc(-c2ccc3c(c2)OC(C)O3)c(F)c(N)c1Cl (stereo not drawn) [Compound 20]: 30 to 44%
- Nc1c(F)c(-c2cc3c(cc2F)OC(F)(F)O3)nc(C(=O)O)c1Cl [Compound 13]: 85 to 94%
- COC(=O)c1nc(-c2cccc3c2OC(F)(F)O3)c(F)c(N)c1Cl [Compound 73]: 95 to 100%
- Nc1cc(-c2cc(F)c3c(c2)OC(F)(F)O3)nc(C(=O)O)c1Cl [Compound 44]: 0 to 29%
